Data origin, for the record: patent US7148352B2

# assayed system: TrkA and p75^NTR (PC12 cells) (Mus musculus, UniProt P01139)
# Construct: PC12 cells (rat pheochromocytoma cells expressing TrkA and p75^NTR; obtained from ATCC); host or cells: PC12 rat pheochromocytoma cells (intact, in suspension)
# Sequence (P01139 122-241): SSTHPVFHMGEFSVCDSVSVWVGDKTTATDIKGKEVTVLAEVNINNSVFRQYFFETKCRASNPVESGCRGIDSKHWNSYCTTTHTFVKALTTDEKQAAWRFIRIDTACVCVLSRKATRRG
# assay details: 125I-NGF receptor binding to PC12 cells in the presence of competitor
# Set-up: species or system rat
# condition details: compound 50 μM; 125I-NGF 1 nM; 2 h at 4° C.; average of three values
property name: PC12 % of Max, Avg

compound	property name	observed value
O=C(O)c1ccc(N2C(=O)c3cccc([N+](=O)[O-])c3C2=O)cc1 [Compound 125, 3-nitro-N-(p-carboxyphenyl)phthalimide]	PC12 % of Max, Avg	= 90 % of Max
O=C(O)c1ccc(N2C(=O)c3cccc4c([N+](=O)[O-])ccc(c34)C2=O)cc1 [Compound 225]	PC12 % of Max, Avg	= 66 % of Max
O=C(O)CCN1C(=O)c2ccc([N+](=O)[O-])cc2C1=O [Compound 141, 4-nitro-N-(2-carboxyethyl)phthalimide]	PC12 % of Max, Avg	= 90 % of Max
O=C(O)CCCN1C(=O)c2ccc([N+](=O)[O-])cc2C1=O [Compound 142, 4-nitro-N-(3-carboxypropyl)phthalimide]	PC12 % of Max, Avg	= 66 % of Max
